target: T1, recombinant human PD-1 expressed with a C-terminal myc-myc-hexahistidine tag (human); experiment: SPR (Biacore), mAb captured, hPD-1-MMH injected, 25 C;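 further: rate constants obtained by fitting sensorgrams to a 1:1 binding model, KD derived as kd/ka and half-life as ln2/(60·kd) in minutes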
T1 construct: also called hPD-1-MMH; human PD-1-MMH
T1 sequence (chain, as listed by the source limits assumed): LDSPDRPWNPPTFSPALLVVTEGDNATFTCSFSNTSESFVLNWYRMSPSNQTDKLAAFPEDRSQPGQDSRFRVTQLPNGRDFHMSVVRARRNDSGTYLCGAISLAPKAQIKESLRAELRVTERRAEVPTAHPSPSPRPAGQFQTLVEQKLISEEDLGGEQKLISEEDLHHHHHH
The binders listed here are annotated with their kon.
Expressed in M⁻¹ s⁻¹, but write only the number.

As a guide, the following entries are already answered.
{"columns": ["binder", "kon, M⁻¹ s⁻¹"],
 "data": [
  ["H2aM7780N (antibody, mouse IgG2a, V domains shown, also called H2M7780N) VH: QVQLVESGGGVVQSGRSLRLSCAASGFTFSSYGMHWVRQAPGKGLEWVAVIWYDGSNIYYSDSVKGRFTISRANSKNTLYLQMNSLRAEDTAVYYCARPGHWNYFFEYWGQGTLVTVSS VL: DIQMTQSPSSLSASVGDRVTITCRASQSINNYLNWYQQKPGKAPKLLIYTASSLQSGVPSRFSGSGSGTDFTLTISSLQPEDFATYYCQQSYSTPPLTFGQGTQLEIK", 9320],
  ["H2aM7795N (antibody, mouse IgG2a, V domains shown, Human variable domains, mouse IgG2a Fc; also called H2M7795N) VH: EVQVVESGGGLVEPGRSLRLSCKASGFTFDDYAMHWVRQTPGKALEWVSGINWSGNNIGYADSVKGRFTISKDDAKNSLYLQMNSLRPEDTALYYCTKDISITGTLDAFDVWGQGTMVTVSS VL: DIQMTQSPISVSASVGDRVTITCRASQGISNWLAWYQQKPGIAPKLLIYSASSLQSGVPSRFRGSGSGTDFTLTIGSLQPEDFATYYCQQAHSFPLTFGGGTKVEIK", 49100]
]}

Reported kon of H2aM7791N (antibody, mouse IgG2a, V domains shown, Human variable domains, mouse IgG2a Fc; also called H2M7791N) VH: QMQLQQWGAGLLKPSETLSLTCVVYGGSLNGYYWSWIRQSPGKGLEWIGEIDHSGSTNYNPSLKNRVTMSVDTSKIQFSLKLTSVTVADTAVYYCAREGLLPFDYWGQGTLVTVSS VL: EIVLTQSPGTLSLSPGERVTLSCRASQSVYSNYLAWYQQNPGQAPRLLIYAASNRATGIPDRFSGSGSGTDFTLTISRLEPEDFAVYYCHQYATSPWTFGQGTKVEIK : 30100

FYI, the data here is from patent US20150203579A1.
